molecules and their reported AUC(0-t)
Test: Portal vein and femoral vein plasma pharmacokinetics after oral EZE
Assay type: in vivo, rats
Conditions: Sprague-Dawley, rat, femoral vein plasma, po, 10 mg/kg, oral 10 mg/kg EZE, control rats; read-out: AUC0–t in femoral vein plasma
Method: To investigate changes due to the first-pass metabolism and biliary excretion during liver disease, CCl4-induced rats (n = 5) and control rats (n = 5) were anesthetized and the hepatic portal and femoral veins were cannulated with PE-50 polyethylene tubing. EZE was orally administered to rats at 10 mg/kg. […]
Provide the reading as a plain figure in ng·h/mL.

[
  {
    "molecule": "O=C1[C@H](CC[C@H](O)c2ccc(F)cc2)[C@@H](c2ccc(O)cc2)N1c1ccc(F)cc1 [EZE, reference compound]",
    "AUC(0-t) (ng·h/mL)": 56.2
  }
]

--- query ---
For reference, reported AUC(0-t) for O=C(O)[C@H]1O[C@@H](Oc2ccc([C@@H]3[C@@H](CC[C@H](O)c4ccc(F)cc4)C(=O)N3c3ccc(F)cc3)cc2)[C@H](O)[C@@H](O)[C@@H]1O [EZE-Ph, ezetimibe phenoxy β-D-glucuronide] stands at 2580
